In this section, each of the compounds is paired with its reported % Inhibition 1 μM.
- targetUnderTest: human BACE-1 (Homo sapiens)
- Construct: purchased CEREP (contract assay) 761-B
- Sequence (P56817 46-501): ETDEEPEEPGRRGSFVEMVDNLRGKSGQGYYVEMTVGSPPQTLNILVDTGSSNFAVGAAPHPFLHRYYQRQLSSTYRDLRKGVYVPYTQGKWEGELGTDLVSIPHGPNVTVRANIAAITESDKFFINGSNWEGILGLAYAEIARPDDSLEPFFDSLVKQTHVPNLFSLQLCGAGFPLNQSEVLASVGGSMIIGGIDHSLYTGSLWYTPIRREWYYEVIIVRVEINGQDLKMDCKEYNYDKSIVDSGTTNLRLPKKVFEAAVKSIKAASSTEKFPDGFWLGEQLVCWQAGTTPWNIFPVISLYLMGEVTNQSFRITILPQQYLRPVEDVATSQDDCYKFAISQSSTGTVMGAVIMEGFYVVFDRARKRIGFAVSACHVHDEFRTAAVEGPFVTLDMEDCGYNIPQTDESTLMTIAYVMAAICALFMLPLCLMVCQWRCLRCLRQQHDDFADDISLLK
- test: In Vitro BACE Assay run by CEREP (Example 14)
- Format: biochemical
- appliedConditions: 1 μM compound; recombinant enzyme, 60 min at 37° C., pH 4.5
measurementKind: % Inhibition 1 μM (%)

• CN(Cc1ccccc1)C(=O)CCC(c1cc2cc(Oc3ccccc3)ccc2nc1N)C1CCCCC1 (stereo not drawn) [compound 38] = 9
• CC(C)(C)CN(Cc1c[nH]cn1)C(=O)CCC(c1cc2cc(Oc3ccccc3)ccc2nc1N)C1CCOCC1 (stereo not drawn) [compound 59] = 78
• Cn1ccnc1CN(CCC(C)(C)C)C(=O)CCC(c1cc2cc(Oc3ccccc3)ccc2nc1N)C1CCOCC1 (stereo not drawn) [compound 56] = 94
